STUDY TARGET: OsSMF1 (Oryza sativa, UniProt Q6ZLB0 1-436)
Sequence: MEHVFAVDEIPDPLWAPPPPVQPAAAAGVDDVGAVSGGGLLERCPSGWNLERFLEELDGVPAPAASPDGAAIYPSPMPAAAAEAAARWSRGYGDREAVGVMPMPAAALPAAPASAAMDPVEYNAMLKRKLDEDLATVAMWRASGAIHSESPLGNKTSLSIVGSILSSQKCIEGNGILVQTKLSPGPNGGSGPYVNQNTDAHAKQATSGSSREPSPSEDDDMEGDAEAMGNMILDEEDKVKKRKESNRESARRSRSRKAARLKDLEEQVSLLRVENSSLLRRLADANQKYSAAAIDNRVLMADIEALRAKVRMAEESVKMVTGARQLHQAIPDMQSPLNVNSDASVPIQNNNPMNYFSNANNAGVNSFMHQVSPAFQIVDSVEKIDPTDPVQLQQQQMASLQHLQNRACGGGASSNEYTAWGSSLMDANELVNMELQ
RUN DESCRIPTION: protein-binding microarray (RPBM); PBS, 2% BSA, 51.3 ng/ul salmon testes DNA, 50 uM zinc acetate, 200 nM TF, 25 C, 1 h; high values mean tight binding
TEST PARAMETERS: protein: recombinant; tags: N-terminal polyhistidine and DsRed monomer fusion (pET32a); chain copies: 2; label: CyDye5-dUTP incorporated in the synthesized complementary strand; 3' TTTTT single-stranded linker to array surface; dsDNA, one strand shown
In all, about 39,000 sequences were measured (“fluorescence intensity (a.u.)”: median about 4,300, highest 2% from about 39,000 on). Only a selection was taken, and the highest values are over-represented in it overall.
RECORDED METRIC: binding signal

Consider the following illustrative entries.
Tell me reported binding signal for CTTCAAGAAGGTTACGCTGACAGAACGGCGACAACGTCCGCGGAGTCACCTAGTGCAG , tested with OsSMF1 (Oryza sativa, UniProt Q6ZLB0 1-436).
3220 fluorescence intensity (a.u.)

Now give it for TTGGCCACCTCCACCTCACTCGCATGAAGGCTAAGTGAGCCGGAGTCACCTAGTGCAG too.
4160 fluorescence intensity (a.u.)

Next record, please: TATGACTAATCATGGACTAATTAGGCTCAAAAGATTCGTCCGGAGTCACCTAGTGCAG
33200 fluorescence intensity (a.u.)

Also, TCTGGACCACATAAACGAGAGAGAGAGAGAAGTCCAAGCCCGGAGTCACCTAGTGCAG please.
47900 fluorescence intensity (a.u.)

Similarly, TAAGCTCCAAAGCCAGCTATAGCATGAGCTCCAAAATATACGGAGTCACCTAGTGCAG ?
45700 fluorescence intensity (a.u.)

***
Please tell me: binding signal of CAAGTCCAAGAGCACCATAAGCTAGTGACACATAGAGCCCCGGAGTCACCTAGTGCAG , system OsSMF1 (Oryza sativa, UniProt Q6ZLB0 1-436)?
4140 fluorescence intensity (a.u.)

# iterate: GCGAGCGGCCAACTGGGAAGGCGGTGGTGAGGACATCGTGCGGAGTCACCTAGTGCAG
5400 fluorescence intensity (a.u.)

Also AGAGGGACGTCGACGCGTGGTGCCGTGGTGGTGTCGCTCGCGGAGTCACCTAGTGCAG ?
3400 fluorescence intensity (a.u.)

Now the sequence CATTCAACGCTCGCGTGCGTGCAGTGCCGTGTGTGGACCGCGGAGTCACCTAGTGCAG
54900 fluorescence intensity (a.u.)

Now consider TGTCAGTTGGCGAGGGATGCACTGATGACTATGCTAGTGCCGGAGTCACCTAGTGCAG and answer again.
4860 fluorescence intensity (a.u.)

And what about the sequence ACACTAGTAACAAAACTTGGCAATTTGGCATTTGGCATTTCGGAGTCACCTAGTGCAG ?
3300 fluorescence intensity (a.u.)

Now consider AGAACCTTCCGCGCTTCCGTGCTCCCCACCGCCACCTCGCCGGAGTCACCTAGTGCAG .
3430 fluorescence intensity (a.u.)

Let us now turn to CCTAAATAAGCTAGCAAAATAGCCAATGCCAGCCAATATTCGGAGTCACCTAGTGCAG
28300 fluorescence intensity (a.u.)

What do we get for CCATCTCCGACGAATGATGCTTTGACACTTAATGCTGCGTCGGAGTCACCTAGTGCAG ?
3350 fluorescence intensity (a.u.)

And what about the sequence TCTGCAAGCACCAACGAGAAGCCACAAATGTTCACATCACCGGAGTCACCTAGTGCAG ?
3610 fluorescence intensity (a.u.)

Further, for CCGCTCCGCCTACTCTGGCCACGCGCTGACGCCGCGTCCCCGGAGTCACCTAGTGCAG ?
7060 fluorescence intensity (a.u.)

Could you do the same for CTATGGCTCATGAGCCAAAATTCAAAAGGCTAACGTTGGCCGGAGTCACCTAGTGCAG , please?
43400 fluorescence intensity (a.u.)

Would you kindly repeat that for GAATCTACTGGGCATTTCGTCAAACAGCTCATCTGCGCCCCGGAGTCACCTAGTGCAG ?
3590 fluorescence intensity (a.u.)

And what about the sequence AGCTTCATCTGCAATCCTCCGCTGATCTCTCCCTGTCCGGCGGAGTCACCTAGTGCAG ?
3940 fluorescence intensity (a.u.)

Source: paper PMC7819943
